All values here come from ChEMBL document CHEMBL3108751.

target: Kallikrein-5 (Homo sapiens, UniProt Q9Y337); test: Competitive inhibition of human recombinant KLK5 expressed in baculovirus-infected insect cell system using Abz-KLRSSKQ-Eddnp as substrate incubated for 5 mins prior to substrate addition by Lineweaver-Burk plot analysis
Sequence (Q9Y337 whole entry): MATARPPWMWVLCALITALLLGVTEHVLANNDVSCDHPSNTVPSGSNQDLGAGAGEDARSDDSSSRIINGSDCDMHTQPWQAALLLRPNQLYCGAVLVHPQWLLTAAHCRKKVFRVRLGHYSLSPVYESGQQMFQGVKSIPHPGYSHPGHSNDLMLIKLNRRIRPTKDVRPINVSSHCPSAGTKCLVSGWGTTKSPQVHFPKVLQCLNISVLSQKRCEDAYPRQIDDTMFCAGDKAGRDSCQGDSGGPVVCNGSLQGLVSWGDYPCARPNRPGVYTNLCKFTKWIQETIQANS
Value Type: pKi
The scale used: pKi is minus the common logarithm of the concentration in molar units.

Here's what some known entries look like.
CC(C)(C)OC(=O)N[C@H](Cc1c[nH]c2ccccc12)C(=O)N[C@H]1CO[C@H]2[C@@H]1OC[C@H]2OCc1ccccc1 = 4.55
CC(C)(C)OC(=O)N[C@@H](CCCCNC(=O)OCc1ccccc1)C(=O)O[C@@H]1CO[C@H]2[C@@H]1OC[C@H]2OCc1ccccc1 = 6.15

IN: Endpoint output: pKi of O=C(OC1CO[C@H]2[C@@H]1OC[C@H]2OCc1ccccc1)[C@H](Cc1ccccc1)NC(=O)[C@@H]1CCCN1C(=O)OCc1ccccc1 (single isomer, unassigned) . Value?
OUT: 6.40

IN: Endpoint output: pKi of CC(C)(C)OC(=O)N[C@H](CCCN/C(=N\C(=O)OCc1ccccc1)NC(=O)OCc1ccccc1)C(=O)N[C@H]1CO[C@H]2[C@@H]1OC[C@H]2OCc1ccccc1 . Value?
OUT: 5.77
